All values here come from paper PMC6613885.

Hi there, I'd appreciate the recorded Kd for every entry that follows.
measured-on: T1, recombinant GABARAP (biolayer interferometry) (UniProt O95166 1-117)
T1 construct: GABARAP; construct of the BLI experiment not described; source: recombinant
assay-explanation: BLI; biotin-LIR peptides (50 µg/ml) on streptavidin biosensors, Atg8-family protein in solution at different concentrations; Octet Red 96; 25°C; global fit, 1:1 model
test-parameters: both partners purified
Ends that are not written are not given here.
Dear colleague, please return just the value in µM, with no unit written.

Using the record for SSPILTSFELVKVPDP (also: biotin label, place not given here) [biotin-labeled 16-mer PIK3C3 LIR peptide] , state its measured Kd.
49.5

Using the record for ETDLGTDWENLPSPRF (also: biotin label, place not given here) [biotin-labeled 16-mer ATG14 LIR peptide] , state its measured Kd.
2.85

Using the record for STESANSFTLIGEASD (also: biotin label, place not given here) [biotin-labeled 16-mer BECN1 LIR peptide] , state its measured Kd.
10.5
